# Experimental Details: solvent given as SMILES
# Condition Parameters: in CCOC(C)=O
Reported emission maximum is given for each of the following compounds.
Quick note: give the figure in nm, leave out the unit.

Compound Structure	emission maximum [nm]
CCCCN1c2ccccc2Sc2cc(/C=C/c3nc4nc5ccccc5nc4s3)ccc21	670
Cc1cc(C2(c3cc(C)c(O)c(Br)c3)OS(=O)(=O)c3ccccc32)cc(Br)c1O	478
O=C1/C(=C\c2ccc3oc4ccccc4c3c2)S(=O)(=O)c2ccccc21	429

In plain terms, COc1cc2c(cc1/C=C(\C#N)c1nc3ccccc3s1)c1ccccc1n2C has a documented emission maximum of 493
